System: barnyardgrass (Echinochloa crus-galli, ECHCG)
Procedure Text: Post-emerge test, greenhouse herbicide activity screening
Format: in vivo
Test Conditions: 63 g ai/ha; post-emerge; 14 days after application; rating scale 0-100
Reported Metric: Post-emerge Herbicidal Activity ECHCG (phytotoxicity rating)
Respond using a number only.

### Prompt For barnyardgrass (Echinochloa crus-galli, ECHCG), give the measured Post-emerge Herbicidal Activity ECHCG (phytotoxicity rating) of the entry COc1c(Cl)cc(F)c(-n2c(=O)cc(C(F)(F)F)n(C)c2=O)c1NNC(=O)c1ccc(F)cc1F [15-4]
### Response 40

### Prompt For barnyardgrass (Echinochloa crus-galli, ECHCG), give the measured Post-emerge Herbicidal Activity ECHCG (phytotoxicity rating) of the entry CCCOC(=O)C(Cl)Cc1c(OCC)c(Cl)cc(F)c1-n1c(=O)cc(C(F)(F)F)n(C)c1=O (centres unmarked) [14-66]
### Response 100

### Prompt For barnyardgrass (Echinochloa crus-galli, ECHCG), give the measured Post-emerge Herbicidal Activity ECHCG (phytotoxicity rating) of the entry COc1c(Cl)cc(F)c(-n2c(=O)cc(C(F)(F)F)n(C)c2=O)c1NN=C1CCc2ccccc2C1 [15-18]
### Response 10

### Prompt For barnyardgrass (Echinochloa crus-galli, ECHCG), give the measured Post-emerge Herbicidal Activity ECHCG (phytotoxicity rating) of the entry COc1c(Cl)cc(F)c(-n2c(=O)cc(C(F)(F)F)n(C)c2=O)c1NN=CCCSC [15-14]
### Response 20

### Prompt For barnyardgrass (Echinochloa crus-galli, ECHCG), give the measured Post-emerge Herbicidal Activity ECHCG (phytotoxicity rating) of the entry Cn1c(C(F)(F)F)cc(=O)n(-c2c(O)cc(Cl)cc2Cl)c1=O [16-1]
### Response 0

### Prompt For barnyardgrass (Echinochloa crus-galli, ECHCG), give the measured Post-emerge Herbicidal Activity ECHCG (phytotoxicity rating) of the entry COc1c(Cl)cc(F)c(-n2c(=O)cc(C(F)(F)F)n(C)c2=O)c1NN=C(C)C [15-12]
### Response 70

### Prompt For barnyardgrass (Echinochloa crus-galli, ECHCG), give the measured Post-emerge Herbicidal Activity ECHCG (phytotoxicity rating) of the entry CCOC(=O)C(Cl)Cc1cc(Cl)cc(F)c1-n1c(=O)cc(C(F)(F)F)n(C)c1=O (centres unmarked) [14-60]
### Response 50

### Prompt For barnyardgrass (Echinochloa crus-galli, ECHCG), give the measured Post-emerge Herbicidal Activity ECHCG (phytotoxicity rating) of the entry COc1c(Cl)cc(F)c(-n2c(=O)cc(C(F)(F)F)n(C)c2=O)c1NNC(=O)c1ccccc1 [15-3]
### Response 10
